# TEST SYSTEM: plasma purified human antithrombin III (AT-III), as complex with unfractionated heparin
# PROCEDURE SUMMARY: ratio of K0.5 to Catalyst Biosciences WT FIXa, AT-III/UFH inhibition
For each record, write down the corresponding K0.5-mut/K0.5-wt.
One number for each entry.

Sample records with K0.5-mut/K0.5-wt:
• FIXa-D104N/K106S/Y155F/K228N/K247N/N249S (protein) chain 1: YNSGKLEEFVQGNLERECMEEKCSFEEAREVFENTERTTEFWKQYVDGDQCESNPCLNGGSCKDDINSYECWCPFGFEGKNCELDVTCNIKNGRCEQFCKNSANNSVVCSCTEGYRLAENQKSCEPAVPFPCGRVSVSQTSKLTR chain 2: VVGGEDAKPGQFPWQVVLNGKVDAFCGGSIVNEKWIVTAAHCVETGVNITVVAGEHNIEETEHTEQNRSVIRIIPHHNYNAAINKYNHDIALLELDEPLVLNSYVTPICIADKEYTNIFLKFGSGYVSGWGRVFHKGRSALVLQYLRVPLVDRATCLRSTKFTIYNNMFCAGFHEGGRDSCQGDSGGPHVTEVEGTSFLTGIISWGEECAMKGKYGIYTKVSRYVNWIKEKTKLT = 1.6
• FIXa-Y155F/K247N/N249S/R318Y/R338E/E410N (protein) chain 1: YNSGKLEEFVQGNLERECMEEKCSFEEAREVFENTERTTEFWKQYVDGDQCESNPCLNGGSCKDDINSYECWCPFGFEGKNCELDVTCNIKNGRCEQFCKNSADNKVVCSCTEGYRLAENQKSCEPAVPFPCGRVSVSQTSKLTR chain 2: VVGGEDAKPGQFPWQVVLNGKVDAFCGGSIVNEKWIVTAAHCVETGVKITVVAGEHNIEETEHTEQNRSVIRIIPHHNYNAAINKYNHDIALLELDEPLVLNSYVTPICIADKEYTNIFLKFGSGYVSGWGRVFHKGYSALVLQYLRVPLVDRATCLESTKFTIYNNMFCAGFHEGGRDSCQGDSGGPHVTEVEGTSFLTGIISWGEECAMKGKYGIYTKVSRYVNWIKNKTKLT = 200

Kindly consider the entry below.
query: # get_value(readout='K0.5-mut/K0.5-wt', item= FIXa-Y155F/N260S/R318Y/R338E/R403E/E410N (protein) chain 1: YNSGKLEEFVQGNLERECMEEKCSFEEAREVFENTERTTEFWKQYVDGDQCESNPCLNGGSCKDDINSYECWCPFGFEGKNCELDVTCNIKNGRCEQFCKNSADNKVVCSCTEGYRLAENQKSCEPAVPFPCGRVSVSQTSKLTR chain 2: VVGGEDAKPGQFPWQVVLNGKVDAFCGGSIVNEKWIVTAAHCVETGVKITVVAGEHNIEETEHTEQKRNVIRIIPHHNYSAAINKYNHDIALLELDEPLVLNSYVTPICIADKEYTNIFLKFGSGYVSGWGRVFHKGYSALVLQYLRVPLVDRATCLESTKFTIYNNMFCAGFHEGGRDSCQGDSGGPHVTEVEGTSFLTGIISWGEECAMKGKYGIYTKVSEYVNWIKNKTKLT )
result: 501
